- METHOD_DESCRIPTION: Belt curing performance (thumb-twist depth cure) in UViCure S105E resin
- RUN_CONDITIONS: LED 395 nm; 40 m/min, 100% intensity (=164.5 mJ/cm^2); 24 μm film, under air; PI 2 wt %
RECORDED_METRIC: Cure speed in UViCure S105E resin (m/min)
Output spec: scalar in m/min, unitless text.

CCCOc1ccc(Cl)c2c(=O)c3cc(-[s+]4c5ccccc5c(=O)c5c(Cl)ccc(OCCC)c54)ccc3sc12 (stereo not drawn)    13.3
Cc1ccc([S+](c2ccc(C(=O)c3ccccc3)cc2)c2ccc3sc4ccc(C(C)C)cc4c(=O)c3c2)cc1 (stereo not drawn)    10.0
CCc1cc(CC)c2sc3ccc([S+](c4ccc(C)cc4)c4ccc(C(=O)c5ccccc5)cc4)cc3c(=O)c2c1 (stereo not drawn)    5.2
CC(C)c1ccc2c(c1)c(=O)c1ccccc1[s+]2-c1ccc(-c2ccccc2)cc1 (stereo not drawn) [Omnicat 550, reference compound]    8.0

Briefly, Cure speed in UViCure S105E resin measured for CC(C)c1ccc2sc3ccc(-[s+]4c5ccccc5c(=O)c5cc(C(C)C)ccc54)cc3c(=O)c2c1 (stereo not drawn) : 20.0

Looking up CCCOc1ccc(Cl)c2c(=O)c3cc([S+](c4ccc(C)cc4)c4ccc(C(=O)c5ccccc5)cc4)ccc3sc12 (stereo not drawn) , I found its Cure speed in UViCure S105E resin recorded as 8.7

* * *

- METHOD_DESCRIPTION: Transmittance at 0.01% w/v in propylene carbonate
- Type: physicochemical
% Transmittance at 355 nm by entry:
Write down the numeric answer in % and omit the unit.

Below: 4 compounds and their reported % Transmittance at 355 nm.
CC(C)c1ccc2sc3ccc(-[s+]4c5ccccc5c(=O)c5cc(C(C)C)ccc54)cc3c(=O)c2c1 (centres unmarked) [Photoinitiator 1]    8.0
Cc1ccc([S+](c2ccc(C(=O)c3ccccc3)cc2)c2ccc3sc4ccc(C(C)C)cc4c(=O)c3c2)cc1 (centres unmarked) [Photoinitiator 2]    19.7
CCCOc1ccc(Cl)c2c(=O)c3cc(-[s+]4c5ccccc5c(=O)c5c(Cl)ccc(OCCC)c54)ccc3sc12 (centres unmarked) [Photoinitiator 5]    0.8
CCc1cc(CC)c2sc3ccc([S+](c4ccc(C)cc4)c4ccc(C(=O)c5ccccc5)cc4)cc3c(=O)c2c1 (centres unmarked) [Photoinitiator 4]    6.8

Note: attention shifts to another entry.
Looking up CC(C)c1ccc2c(c1)c(=O)c1ccccc1[s+]2-c1ccc(-c2ccccc2)cc1 (centres unmarked) [Omnicat 550, reference compound] , I see its % Transmittance at 355 nm listed as 86.8

* * *

Each entry below carries its reported ε at 385 nm.
- METHOD_DESCRIPTION: Molar extinction coefficient in acetonitrile
- Assay type: physicochemical
- Protocol: The curing performance of individual products prepared above was assessed using real time FT-IR measurement. […] The polymerization rate and final reactive group conversion were determined by monitoring the change of the relevant infrared band near 900 cm^−1 corresponding to an epoxide ring during irradiation. The molar extinction coefficients for the photoinitiator products (ε, expressed in M^−1 cm^−1) were determined in acetonitrile at 10^-3 M or 10^-5 M concentration.
Expressed in M⁻¹ cm⁻¹, but write only the number.

Here is how some molecules turned out for ε at 385 nm.
COc1ccccc1-c1cc(-[s+]2c3ccccc3c(=O)c3cc(C(C)C)ccc32)ccc1OC (stereo not shown)    268
CCCOc1ccc(Cl)c2c(=O)c3cc(-[s+]4c5ccccc5c(=O)c5c(Cl)ccc(OCCC)c54)ccc3sc12 (stereo not shown)    23429
CCCOc1ccc(Cl)c2c(=O)c3ccccc3[s+](-c3ccc(-c4ccc(OC)cc4)cc3)c12 (stereo not shown)    2055
Cc1ccc([S+](c2ccc(C(=O)c3ccccc3)cc2)c2ccc3sc4ccc(C(C)C)cc4c(=O)c3c2)cc1 (stereo not shown)    14921
COC(=O)COc1ccc2sc3ccc(-[s+]4c5ccccc5c(=O)c5cc(OCC(=O)OC)ccc54)cc3c(=O)c2c1 (stereo not shown)    24656

// ε at 385 nm value for CC(C)c1ccc2c(c1)c(=O)c1ccccc1[s+]2-c1ccc(Oc2ccccc2)cc1 (stereo not shown) : 137

GET /value?item= CCCOc1ccc(Cl)c2c(=O)c3cc([S+](c4ccc(C)cc4)c4ccc(C(=O)c5ccccc5)cc4)ccc3sc12 (stereo not shown) &field=ε at 385 nm returns 17083

* * *

- METHOD_DESCRIPTION: Belt curing performance (thumb-twist depth cure) in UViCure S105E resin
- RUN_CONDITIONS: LED 365 nm; 100% intensity (=70.1 mJ/cm^2), belt speed 40 m/min; 24 μm film, under air; PI 2 wt %
Cure speed in UViCure S105E resin values, listed per item
Report the figure in m/min without appending any unit label.

Recorded Cure speed in UViCure S105E resin, per entry:
CC(C)c1ccc2c(c1)c(=O)c1ccccc1[s+]2-c1ccc(-c2ccccc2)cc1 (stereo not drawn) [Omnicat 550, reference compound]    5.0
CC(C)c1ccc2sc3ccc(-[s+]4c5ccccc5c(=O)c5cc(C(C)C)ccc54)cc3c(=O)c2c1 (stereo not drawn) [Photoinitiator 1]    12.2
CCc1cc(CC)c2sc3ccc([S+](c4ccc(C)cc4)c4ccc(C(=O)c5ccccc5)cc4)cc3c(=O)c2c1 (stereo not drawn) [Photoinitiator 4]    3.7
CCCOc1ccc(Cl)c2c(=O)c3cc([S+](c4ccc(C)cc4)c4ccc(C(=O)c5ccccc5)cc4)ccc3sc12 (stereo not drawn) [Photoinitiator 3]    4.8
Cc1ccc([S+](c2ccc(C(=O)c3ccccc3)cc2)c2ccc3sc4ccc(C(C)C)cc4c(=O)c3c2)cc1 (stereo not drawn) [Photoinitiator 2]    4.6

Next compound, Cure speed in UViCure S105E resin to be filled in.
Recorded result, CCCOc1ccc(Cl)c2c(=O)c3cc(-[s+]4c5ccccc5c(=O)c5c(Cl)ccc(OCCC)c54)ccc3sc12 (stereo not drawn) [Photoinitiator 5] , Cure speed in UViCure S105E resin: 13.3

* * *

- METHOD_DESCRIPTION: Colour index 'b' of formulations before and after polymerization
- Format: physicochemical
- RUN_CONDITIONS: UViCure S105E, thin samples (20 μm), under air, LED @365 nm (120 mW/cm^2), 300 s irradiation
- Procedure: The low yellowing characteristics can be measured by the Colour index ‘b’ value on cured films. Formulations comprising the photoinitiators and neat UViCure S105E resin were prepared as described at example 2.
# Colour index ‘b’ value Before Polymerization values compiled below

Use these answered entries as a reference point.
CCCOc1ccc(Cl)c2c(=O)c3cc([S+](c4ccc(C)cc4)c4ccc(C(=O)c5ccccc5)cc4)ccc3sc12 (centres unmarked)    11.28
Cc1ccc([S+](c2ccc(C(=O)c3ccccc3)cc2)c2ccc3sc4ccc(C(C)C)cc4c(=O)c3c2)cc1 (centres unmarked)    6.48
CC(C)c1ccc2sc3ccc(-[s+]4c5ccccc5c(=O)c5cc(C(C)C)ccc54)cc3c(=O)c2c1 (centres unmarked)    6.38
CCCOc1ccc(Cl)c2c(=O)c3cc(-[s+]4c5ccccc5c(=O)c5c(Cl)ccc(OCCC)c54)ccc3sc12 (centres unmarked)    5.02

Entry under test: CCc1cc(CC)c2sc3ccc([S+](c4ccc(C)cc4)c4ccc(C(=O)c5ccccc5)cc4)cc3c(=O)c2c1 (centres unmarked) . Its Colour index ‘b’ value Before Polymerization was 6.33

* * *

- METHOD_DESCRIPTION: Solubility in propylene carbonate at ambient temperature
- Type: physicochemical
- RUN_CONDITIONS: 20-25° C.
- Description: Solubility of selected sulfonium salts in propylene carbonate at ambient temperature (20-25° C.) was determined.
RECORDED_METRIC: Solubility in propylene carbonate (wt %)
Reply numerically in wt %, unit not repeated.

Looking up CC(C)c1ccc2c(c1)c(=O)c1ccccc1[s+]2-c1ccc(-c2ccccc2)cc1 (centres unmarked) [Omnicat 550, reference compound] , I see its Solubility in propylene carbonate listed as 25

Just so you know, measured Solubility in propylene carbonate for CCCOc1ccc(Cl)c2c(=O)c3cc(-[s+]4c5ccccc5c(=O)c5c(Cl)ccc(OCCC)c54)ccc3sc12 (centres unmarked) came out at 42

* * *

Measured Solubility in propylene carbonate, listed per entry for reference.
- METHOD_DESCRIPTION: Solubility in propylene carbonate at ambient temperature
- Assay type: physicochemical
- RUN_CONDITIONS: 20-25° C.
- Procedure: Solubility of selected sulfonium salts in propylene carbonate at ambient temperature (20-25° C.) was determined.

CC(C)c1ccc2sc3ccc(-[s+]4c5ccccc5c(=O)c5cc(C(C)C)ccc54)cc3c(=O)c2c1 (stereo not drawn) [Photoinitiator 1]    >50 wt %
Cc1ccc([S+](c2ccc(C(=O)c3ccccc3)cc2)c2ccc3sc4ccc(C(C)C)cc4c(=O)c3c2)cc1 (stereo not drawn) [Photoinitiator 2]    >48 wt %

Here is another compound to look at.
Summary for this compound, CCc1cc(CC)c2sc3ccc([S+](c4ccc(C)cc4)c4ccc(C(=O)c5ccccc5)cc4)cc3c(=O)c2c1 (stereo not drawn) [Photoinitiator 4] : Solubility in propylene carbonate is >47 wt %
